Assay: soluble fraction after stress (log2 fold change); higher = more stays soluble; pooled small domains, quantitative proteomics
Conditions: stress: pH 4
# soluble fraction (log2) listing for each entry below
experimental.endpoint: soluble fraction (log2)

> print(dat)
                               item.sequence  measured
 1  HMFNTWLGEIRSNTGANVRSGPDASAAIVDARPNETVVRVIGQSGNWLQIGDKQFVAQSLVAP   -0.0317
 2  HMSQIILSARSGHAALRHRLGELGYTFADKEFDDIYERFLEVADQKKEVYDEDLESIVQERQRD    -0.559
 3  HMPAPKPSGALSLKDEPLYAASDSKRRSGTVSGTYYRWDGENVNGRMRITNKQENIGKAGQVTGWITAH  -0.00233
 4  HMGVRPAALGFQKVRIEPQVGTFREASGDVITPRGLIHAEWKRDEENALHLHYTLPDGVAYA    -0.109
 5  HMNVVSIEHIRTHLQNHLSLIGRSIEESFNEAKVIAFVASLFLTHRGYASVSQDMGTNGEIYLQDLW   -0.0149
 6  HMKKYLTETEAAAYLNMPVEEIKAAITKGEIEQYVKTSSGYTISVEELDKFFGQKAYDTMTSNNS     -0.43
 7  HMSGIVPAAPPLRPDLDIKWHTGDKVRHAKWGEGTIVSVKGEGEETELKIAFPGQGIRPFMQKYAPITR     0.214
 8  HMKKSRLHSVLEEIPGIGEKRRKILIKHFGTVEAIKKSSLEELARIKGMNRRAAQNVLEYLK     0.407
 9  HMSRLLRTDAHLQYAAERGLPVTASAYTPVFAGAKQYTGRIESFDAQTIRFADGPAVERKAVARLEAE     0.138
10  HMEIVQVIAQNIQDLLDKHKISVSELSGYLGISRQTLTNYLKTTSTIDSVQLVKIADFFNIPAEYLLKDH    -0.659
11  HMGSKKAIPYVSGMSETEAQNELEEAGFKVTSSFQYDDSVESGKVISTTPEAGTKAEKGSTVTMLVSQGSN    0.0696
12  HMDTNPKVIITMDGVNVRSSASTGSDILFIAEKGEEYELISESGDFYKILYEGNKEGYVASWLVETSE    -0.022
13  HMKVFREERLQLILEKLIHEKKVVVSDLVKYFNVSPSLIRMDLAELEKRDLILRTHGGAILPD   -0.0668
14  HMADFIKEIKTNNPRQLLKSILSSFMPRALILELEMLLWNDLKSKPIGEWSNTQIENVGKLLNNWILKPAA     0.164
15  HMDVLKVFSHNVRRYRTQLGLSQETVAFRTGLHRTYISAVERGKRSISLDNIQKIADALEVETYLLFI      0.22
16  HMSAQDLIVKTDATQVEARVLEISPEQIRYKRFSNPDGPTYVLPVDAVDYIRYANGETDSFR    -0.446
17  HMDLGLTDDQRLVYGLLSPTVPRSSGELLGMVDFGRSKLSRILKELIELGQVFTVGVGRGLKYKRG    -0.256

###

Assay: soluble fraction after stress (log2 fold change); higher = more stays soluble; pooled small domains, quantitative proteomics
Details: stress: pH 4
experimental.endpoint: soluble fraction (log2)

> print(dat)
                              item.sequence  measured
1  HMSIEIKTIDVKHADLFQLQDILRNLYPELNIVPDQRNNKLILQGKRELLVEAERLTLQLDTE     -1.29
2  HMKDLTAIKGVGEFFAKKLSQAGYQSITNLTDVNAKRLQADTGIPLPIAARIIKEAQSLIAET  -0.00834
3  HMKYVDYYATLGVARDADLATITKAYRKLARQTHPDLNQGADNEARFKAAAEAYATLKHPEKRAAYDELGQ     0.117
4  HMYIDNVTIYDVGFNERIVHALERAGVKNLYDLSQMNFYQLQRIRNLGASSLEKVINRIHSYGILLKNES    -0.761

###

Test: soluble fraction after stress (log2 fold change); higher = more stays soluble; pooled small domains, quantitative proteomics
Details: stress: pH 4
experimental.endpoint: soluble fraction (log2)

> print(dat)
                              item.sequence  cmp  measured
1  HMLSDLTPGDLVVHATHGIGRFLGIRKLELEGMTKDYITIQYRGNENLYVPVTQMDLVSRYI    =    -0.975
2  HMGMYAEERHQAIASLARKHGRVSVAELAERFNVTSETIRRDLDSLARRGLLTRVHGGAVPVE    ≥      0.43
3  HMDDHKQHLIDFYHSRKRMPTYTEMMALFGYKSKNAVARLVEKMIDAGIVTKDKLGKLLPTTLFDSVPL    =   -0.0996
4  HMDIDNDIIENILVMGVTKAIAINLSNEFERHRIIANIEYAKEKSKNSEIKNISAFTVEAIRQDYANS    =     -1.12
5  HMKNEQIFIVRPDAEGTRLDQWLAAQMASSEEAPSRMQIQRWIKAGLVEGQGTLNPARRIEAGESYTVKPG    =     0.203
6  HMNKSYTVPDVRGMTVEEAQEAEGVKDIFTVHVQGTRKTDEYQPGQIVEQDPIAGRTRKSNFVIEVYVAE    =    -0.237
7  HMNVQGFVFDLAEPLDKVPSIEGFPLKLEDPLTLVAAVNKDRSINALFAELSKLNIKIKSMRNE    =    -0.458
8  HMEVSVPDFTGMSKSDAQNAAKEAGLTVNFEEDYDNQVPAGQVIRSNPSAGEKVKKNSSVTVTLSKGSN    =      0.24

###

# soluble fraction (log2) listing for each entry below
Assay: soluble fraction after stress (log2 fold change); higher = more stays soluble; pooled small domains, quantitative proteomics
Conditions: stress: pH 4
experimental.endpoint: soluble fraction (log2)

> print(dat)
                              item.sequence  measured
1  HMDMDRRALLLALINDRYHASVAEFARAINKAPAQVHQWLSGNRALGNAGARDIEIRLNLAQGYFDH     0.282
2  HMDGQPQLLIKNGQLLVSTALKNGMSANDLMFRLRTEGITDIRYVKRAVLEQNGQLTITQVGDD   -0.0398
3  HMVLENLKKFIDSKGISVSAFEKSIGMSNNSFRKSLNSGGHIGSDKLENILKIYPELNPVWLLQGEGEML   -0.0839
4  HMKKDLATYAYEHIKQMVIDRELMPGERIQQEVLARELGISRTPLVTALNRLASENLVELEANKGFSVRRF     0.429
5  HMTDFESYTVRVTATNLNIRKGAGTNFHSAGYIKPGVYTIVEEADGKGATRWGKLKSGMGWISLDYAKK     0.428
6  HMNPNEVQIPDLVNKTEEEAEQILKDLKLKLVVKSEEYDENIEKGKIISQDPTYKENYKIKEHSEISVIIS    0.0816
7  HMTVTISPGYEGRLLRSYLKNTLSLSTSALARLKTREDGITVNGVRVTVRYVLHAGDLLQLAVD      0.22
8  HMGELRAPLPGVIVSIPVKEGDEVKAGQAILIIEAMKMESEISSPIDAKVAKIVVKERVLVQEGDILIILE    -0.876

###

# soluble fraction (log2) listing for each entry below
Assay: soluble fraction after stress (log2 fold change); higher = more stays soluble; pooled small domains, quantitative proteomics
Settings: stress: pH 4
experimental.endpoint: soluble fraction (log2)

> print(dat)
                               item.sequence    experimental.endpoint  measured
 1  HMTAPELSVGDYLEYRGKEYKVESLDMDGFITLTDTALEDAPRLISRVTFLTDEFIRSGEYMVIT  soluble fraction (log2)      -1.4
 2  HMSLAISGRNQLHGIIEEVRSDGLLSQIYLRVGDQVLTAVITRDAVAELKLKRGDTAVAIMKSTEVMIARE  soluble fraction (log2)    0.0191
 3  HMAIDLPVTTVNGKDYYYYDVQPKETIFSLSQRLGISREEIISYNPGVDGGLKAYTRLYFPVESGL  soluble fraction (log2)   -0.0117
 4  HMRLSDSEFESIENAIKEKLENSALTADVLVKELSFDEDKIWKVIRWLEDAEKISEDEAGTLLWKPR  soluble fraction (log2)     -0.76
 5  HMLEASVYTAEKSGDRLDAFLAEQAGITRSYAQKLIEGGQVTLGGVVPKKNYKLSAGEQVELILPEN  soluble fraction (log2)  -0.00206
 6  HMQETMTNDEVISLTKAGLSSSIIIGKIRSSATNFDLSTDSLIKLKQAGVSDETVAAMLEAKS  soluble fraction (log2)     0.181
 7  HMSEEVDVPDLVGMQLEEAEKSLEPLGLKLKIAKEIPNSEFEKGKIVDQKTKAGEKVKTGYTIEVTVSSG  soluble fraction (log2)   -0.0107
 8  HMGPTGGLTPHIAIADKRASEAIEFYKQAFGAVEQVRMPAEDGVRLMHAHLLVNGSSLMMHDDFPEYSGQ  soluble fraction (log2)    0.0087
 9  HMDRSRAEIDLGHVETAIRTLAEGGMVQEYAIGGRSLKRYKMGELLQLKAELENEINMERRKEKMRQ  soluble fraction (log2)     0.184
10  HMDILEVLIKKDLAMELLEQLTERQRTVVYLRYFYQLNQKEIADYLGISQQRVSEILSRAKAVLTAYTKK  soluble fraction (log2)    -0.878
11  HMTTTYTVPKVTGMTLEEAREDPDVVGRFTIVEGEKVTSDTVPVGQIVSQEPAAHRQVGEDGLTITVNIS  soluble fraction (log2)      -0.2
12  HMSLLTIDELSQATGVSVRTLRYYVSSGVLDKPTGETRNARYGTHHLDQVRNIKKLQEEGLTLNRILEIKK  soluble fraction (log2)    -0.405
13  HMVGDMLTQKDSEGLTAYLYQQGIISQREMLLLNGILKDRVLTGMEKGQRDSVRASMVQHLLAMLNMM  soluble fraction (log2)     -1.55
14  HMKQLLHLVIGGELKDVRGIEFEDLSKIDFVGAFPSYKAAYDAWKNAAQRTVDNAEMRYFILHAHR  soluble fraction (log2)     -1.37
15  HMQDLAKRWVEEFGDLLYKYTLPRVSDSGIAKDLVQETFLAAWRNIDNFKGEASEKNWLFTILKNKIIDH  soluble fraction (log2)    -0.585
16  HMKVTADVVVADRLKAWIISNNLKPGDRLPTEQKLSEELGVARHTLREGIKRLSQLGIIGSRTGSGMYVKN  soluble fraction (log2)     0.158
17  HMTAGTTALNKLQQGMSTQQVQAALGTPSDRTVKESGVELWKYYYPYENMLLYLKFRDGHLVSFGTN  soluble fraction (log2)    -0.244
